FYI, the data here is from ChEMBL document CHEMBL4431353.

experiment: Oral bioavailability in rat; format: ADME, organism-based; conditions: in vivo
OBSERVATION_TYPE: bioavailability (%)
Dear colleague, please return just the value in %, with no unit written.

Below, each entry is followed by its recorded bioavailability result.
COMPOUND: COc1nnc2ccc(N3CCC(c4ccc(CCN5CCN(C)C(=O)[C@H]5C)cc4)CC3)nn12
bioavailability / %: 72
//
COMPOUND: C[C@@H]1C(=O)N(C)CCN1CCOc1ccc(C2CCN(c3ccc4nnc(N(C)C)n4n3)CC2)cc1
bioavailability / %: 42
//
COMPOUND: COc1nnc2ccc(N3CCC(c4ccc(OCCN5CCN(C)C(=O)[C@H]5C)cc4)CC3)nn12 [AZD-5153]
bioavailability / %: 81
//
COMPOUND: COc1nnc2ccc(N3CCC(c4ccc(OCCN5[C@H](C)CN(C(C)=O)C[C@@H]5C)cc4)CC3)nn12
bioavailability / %: 40

Continue with the compound presented below.
Give me measured bioavailability, please, for this compound: "COc1nnc2ccc(N3CCC(c4ccc(N5CC(CN6CCN(C)C(=O)[C@H]6C)C5)cc4)CC3)nn12"
57
